TGI values for the compounds below.
test system: MOLT-4 leukemia; experiment: NCI tumour cell line growth inhibition, 48 h

C=C1C(=O)OC2C1CCC(=C)C1CC(O)C(=C)C12 (configuration not stated)    25 µM
C=C1CC[C@@]2(C)[C@@H]([C@@H]1C)[C@H]1CC[C@@H]3[C@@]4(C)CC[C@H](O)C(C)(C)[C@@H]4CC[C@@]3(C)[C@]1(C)C[C@@H]2O    > 100 µM
COC(CNC(=O)CNC(=O)c1ccc(C(F)(F)F)cc1)OC    > 100 µM
Cc1cccc2c(C3=C(c4cn(C)c5ccccc45)C(=O)NC3=O)cn(C)c12    > 25 µM
COc1ccc2[nH]c3cc4c(=O)c5cc(OC)ccc5[nH]c4cc3c(=O)c2c1    > 100 µM
CC/C=C\C[C@H]1C/C=C2/C(=O)C=C[C@H]2C/C=C\CCCC(=O)O1    25.1 µM

Incoming: May I ask what TGI has been recorded for NC(CCSCC(F)(F)F)C(=O)O (configuration not stated) ?
Outgoing: > 100 µM

Incoming: Now consider `O=c1oc2ccc([N+](=O)[O-])cc2nc1/C=C(\O)c1ccccc1` .
Outgoing: > 100 µM

Incoming: Same question for `[N-]=[N+]=CC(=O)C1(C(=O)C=[N+]=[N-])CC1` please.
Outgoing: > 100 µM

Incoming: Also, `Cc1noc2cccc(O)c12` please.
Outgoing: > 100 µM

Incoming: Please do the same for `c1ccc(CN2CCC(=NN3CCCCC3)CC2)cc1` as well.
Outgoing: > 100 µM

Incoming: What about `COc1ccccc1N1CCN(CCCCNC(=O)c2ccc([N+](=O)[O-])o2)CC1` ?
Outgoing: > 62.5 µM

Incoming: // query: `C[C@@H]1C[C@H]2OC(=O)[C@@]3(C)CCC[C@@](C)([C@@H]23)[C@@]1(O)CCc1ccoc1`
Outgoing: > 94.4 µM
